- Test system: S. aureus ATCC 29213
- assayProtocol: MIC determination, S. aureus ATCC 29213
- Assay type: cell-based, Staphylococcus aureus
- conditionInfo: Table 1
reportedProperty: MIC S. aureus ATCC 29213

Record summary for Oc1cccc2cccnc12 [Compound 48, 8-hydroxyquinoline] : reported MIC S. aureus ATCC 29213 = 1 micrograms per ml

// sample Oc1cccc2cccnc12 [Compound 20, 8-hydroxyquinoline] , its MIC S. aureus ATCC 29213 was 0.25 micrograms per ml

For Oc1cccc2cccnc12 [Compound 65, 8-hydroxyquinoline] the compound record lists MIC S. aureus ATCC 29213 as 2 micrograms per ml

Input Oc1cccc2cccnc12 [Compound 87, 8-hydroxyquinoline] . Output MIC S. aureus ATCC 29213: 2 micrograms per ml

For record Oc1cccc2cccnc12 [Compound 56, 8-hydroxyquinoline] the listed MIC S. aureus ATCC 29213 is 2 micrograms per ml

* * *

- System: Microsporum canis ATCC 10214
- assayProtocol: Antifungal in vitro MIC, Microsporum canis
- Assay type: cell-based
- conditionInfo: percent inhibition >= 80%
Kindly supply the reported MIC Microsporum canis ATCC 10214 values for the records listed here.
// note: answer is a bare numeric in µg/mL

Lab book: MIC Microsporum canis ATCC 10214 of C[C@@H]1[C@H](O)[C@@H](C)/C=C/C=C/C=C/C=C/C=C/C=C/C=C/[C@H](O[C@@H]2O[C@H](C)[C@@H](O)[C@H](N)[C@@H]2O)C[C@@H]2O[C@](O)(C[C@@H](O)C[C@@H](O)[C@H](O)CC[C@@H](O)C[C@@H](O)CC(=O)O[C@H]1C)C[C@H](O)[C@H]2C(=O)O [Amphotericin B, reference compound] noted as 0.5

# MIC Microsporum canis ATCC 10214 (molecule: Clc1ccc(B(OCc2cnc[nH]2)c2ccc(Cl)cc2)cc1 ) is 16

// field: MIC Microsporum canis ATCC 10214; key: Cc1ccc(B(OCc2nccn2C)c2ccc(C)c(Cl)c2)cc1Cl ; value = 12

Reported MIC Microsporum canis ATCC 10214 ( Cc1ccc(B(OCc2cn(C)cn2)c2ccc(C)c(Cl)c2)cc1Cl ) = 0.5

# molecule CCn1ccnc1COB(c1ccc(C)c(Cl)c1)c1ccc(C)c(Cl)c1 ; its MIC Microsporum canis ATCC 10214 = 16

MIC Microsporum canis ATCC 10214 for Cc1ccc(B(OCc2cn(Cc3ccccc3)cn2)c2ccc(C)c(Cl)c2)cc1Cl is 16

* * *

Field: MIC. Provide a value for each of the compounds that follow.
- Tested on: E. faecalis ATCC 29212
- assayProtocol: MIC determination, E. faecalis ATCC 29212
- Type: cell-based, Enterococcus faecalis
- conditionInfo: Enterococcus faecalis, ATCC29212, Table 1; read-out: MIC E. faecalis ATCC 29212
Please reply with the bare figure in µg/mL and do not write the unit itself.

Field MIC (entry Oc1cccc2nc[nH]c12 [Compound 11, 4-hydroxybenzimidazole] ) reads 8

For Cc1onc(-c2ccccc2Cl)c1C(=O)N[C@@H]1C(=O)N2[C@@H]1SC(C)(C)[C@@H]2C(=O)O [Cloxacillin, reference compound] the compound record lists MIC as 16

MIC recorded for this compound, Oc1ccc(F)c2cccnc12 , is 8

For record Oc1c(Br)cc(Br)c2cccnc12 the listed MIC is 64

// sample Cc1ccnc2c(O)cccc12 , its MIC was 64

Entry under test: N#Cc1ccc(O)c2ncccc12 [Compound 21, 5-cyano-8-hydroxyquinoline] . Its MIC was 16

For reference, reported MIC for COc1cccc2c(O)cc(C(=O)O)nc12 stands at 16

The compound identified as O=C(O)c1cc(O)c2ccccc2n1 registered its MIC at 2
